Origin of measurements: ChEMBL document CHEMBL1130051

# targetSystem: cGMP-specific 3',5'-cyclic phosphodiesterase (Homo sapiens, UniProt O76074)
testReadout: pKi
In plain terms, pKi is the concentration in mol/L turned into minus its base-10 logarithm.

input: Form field: reported pKi of CNc1ncnc2c1ncn2Cc1ccccc1F.CS(=O)(=O)O
output: 5.19
